target: human Survivin wild type (human, UniProt O15392 1-142); test: ITC
Sequence (O15392 whole entry): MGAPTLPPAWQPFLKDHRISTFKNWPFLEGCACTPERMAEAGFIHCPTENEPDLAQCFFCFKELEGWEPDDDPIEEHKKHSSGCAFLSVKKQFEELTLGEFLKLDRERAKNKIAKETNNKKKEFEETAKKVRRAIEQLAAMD
PARAMETER_MEASURED: pKd
The value called pKd is obtained by taking minus log10 of the concentration in mol/L.

Query: Specify pKd for ARTKQTARKSTG [histone H3 N-terminal peptide ARTKQTARKSTG, unmodified] and stop.
Result: 4.93
